Provenance of the data: ChEMBL document CHEMBL1132222

Test: The compound was tested for toxicity using MTT cytotoxicity assay in Hela cell culture, activity expressed as LD50 value.
Format: cell-based
Details: human, HeLa cells; read-out: LD50 (the source's name)
Classify: 1 (yes) when CC50 is strictly less than 30 µM; 0 (no) when CC50 is not.

Record excerpt, results attached:
Compound	Class Label
COc1ccc(-c2c3n(c4c(=O)oc5cc(OS(=O)(=O)O)c(OC)cc5c24)CCc2cc(OC)c(OC)cc2-3)cc1O	0 (no)
COc1ccc(-c2c3c4cc(OC)c(O)cc4oc(=O)c3n3ccc4cc(O)c(OC)cc4c23)cc1O	1 (yes)
COc1ccc(-c2c3n(c4c(=O)oc5cc(O)c(OC)cc5c24)CCc2c-3cc(OC)c(OC)c2OC)cc1O	1 (yes)
COc1ccc(-c2c3n(c4c(=O)oc5cc(OS(=O)(=O)O)c(OC)cc5c24)C(O)Cc2c-3cc(OC)c(OC)c2OC)cc1O (stereo unspecified)	0 (no)
COc1ccc(-c2c3c4cc(OC)c(O)cc4oc(=O)c3n3ccc4c(OC)c(OC)c(OC)cc4c23)cc1O	1 (yes)

Read the next record carefully.
Input COc1ccc(-c2c3c4cc(OC)c(OS(=O)(=O)O)cc4oc(=O)c3n3ccc4cc(OC)c(OC)cc4c23)cc1O ; condition: CC50 strictly below 30 µM. Does it hold?
0 (no)
